# procedure.details: Clearance in rat
# Assay type: ADME, organism-based
# study.conditions: in vivo
readout.type: clearance (mL/min/kg)
Field: numeric (mL/min/kg). Do not append units.

Reported clearance of `CC(C)(C)OC[C@@H]1C(=O)NCCN1C(=O)C[C@H](N)Cc1cc(F)c(F)cc1F` : 60.5

* * *

# tgt: Cytochrome P450 3A4 (Homo sapiens, UniProt P08684)
# Sequence (P08684 whole entry): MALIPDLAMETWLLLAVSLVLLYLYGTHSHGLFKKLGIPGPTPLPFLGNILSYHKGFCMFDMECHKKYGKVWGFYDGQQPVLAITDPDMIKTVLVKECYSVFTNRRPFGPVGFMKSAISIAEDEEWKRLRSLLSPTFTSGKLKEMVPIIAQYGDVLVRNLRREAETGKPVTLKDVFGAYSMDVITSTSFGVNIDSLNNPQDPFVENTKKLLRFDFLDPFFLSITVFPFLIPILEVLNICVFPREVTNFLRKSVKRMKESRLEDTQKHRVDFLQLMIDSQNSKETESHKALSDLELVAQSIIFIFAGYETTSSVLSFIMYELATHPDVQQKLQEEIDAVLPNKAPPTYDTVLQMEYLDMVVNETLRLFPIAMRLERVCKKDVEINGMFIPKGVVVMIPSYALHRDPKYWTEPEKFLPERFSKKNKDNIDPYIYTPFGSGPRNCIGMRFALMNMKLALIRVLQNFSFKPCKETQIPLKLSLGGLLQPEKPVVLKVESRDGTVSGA
readout.type: IC50 (nM)
Field: numeric (nM). Do not append units.

Sample `COc1ccc(CN2CCN(C(=O)C[C@H](N)Cc3cc(F)c(F)cc3F)CC2=O)cc1` , system: Cytochrome P450 3A4 (Homo sapiens, UniProt P08684). Its IC50 is 1080
